# system_tested: UniProt:P41143
# Sequence (P41143 whole entry): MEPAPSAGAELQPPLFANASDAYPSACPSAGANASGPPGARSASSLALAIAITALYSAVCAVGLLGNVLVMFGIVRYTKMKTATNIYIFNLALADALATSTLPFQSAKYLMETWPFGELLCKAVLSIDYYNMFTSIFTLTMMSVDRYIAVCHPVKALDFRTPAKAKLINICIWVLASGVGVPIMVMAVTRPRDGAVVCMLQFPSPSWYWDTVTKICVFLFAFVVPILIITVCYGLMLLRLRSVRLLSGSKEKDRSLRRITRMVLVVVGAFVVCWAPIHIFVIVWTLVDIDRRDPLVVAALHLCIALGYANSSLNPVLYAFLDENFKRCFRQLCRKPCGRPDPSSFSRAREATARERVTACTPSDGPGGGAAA
# procedure_summary: Inhibition of forskolin-induced cAMP accumulation, DOR
pEC50: −log10 of the molar value.
readout_name: pEC50

Request: I am curious: what pEC50 value has been reported for COC(=O)[C@@H]1C[C@]2(CCC(=O)O2)C(=O)[C@H]2[C@@]1(C)CC[C@H]1C(=O)O[C@H](c3ccoc3)C[C@]21C [compound 14] ?
Result: < 5.00
